Target: T1, recombinant human CTLA4-his protein (Acro biosystems, Cat#CT4-H5229) (human, UniProt P16410 37-162)
T1 construct: bought recombinant protein; not shown: his tag
T1 sequence (looked up): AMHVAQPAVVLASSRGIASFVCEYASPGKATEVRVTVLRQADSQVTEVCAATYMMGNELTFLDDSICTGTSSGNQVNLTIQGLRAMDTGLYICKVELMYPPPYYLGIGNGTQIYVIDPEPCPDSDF
Assay: SPR, Biacore; antibody captured on anti-human IgG CM5 chip, CTLA4-his as analyte
Endpoint label: kon (M⁻¹ s⁻¹)
Could you give me the number in M⁻¹ s⁻¹? Just the number is fine.

// returns reported kon for input chimeric C1D1 anti-CTLA4 antibody (antibody, human IgG4 S228P, kappa, V domains shown, mouse variable domains on human IgG4/kappa, made in 293F cells) VH: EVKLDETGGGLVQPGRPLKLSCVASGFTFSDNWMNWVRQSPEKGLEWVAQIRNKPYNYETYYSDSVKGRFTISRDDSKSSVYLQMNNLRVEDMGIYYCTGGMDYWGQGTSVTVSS VL: DIQMTQSPASLSASVGETVTITCGASEIIYGALNWYQQKQGKSPQLLIYGATNLADGMSSRFSGSGSGRQYSLKISSLHPDDAATYYCQKILSPPPWTFGGGTKLEIKR
670000
